Attribution: PubChem BioAssay AID488969

Would you kindly list z-score for each of these compounds?
molecular target: Metabotropic glutamate receptor 8 (Rattus norvegicus) (UniProt P70579); assay: mGluR8 Gi/Go-coupled signaling modulation – cell-based, rat, thallium flux, HTS, primary screen (AID 488969); conditions: HEK293 rat mGluR8, GIRK (G protein-gated inwardly rectifying potassium channel) thallium flux, FluoZin2; at 10 µM; stronger effect = higher value; submaximal glutamate (EC20) added with thallium
Sequence (P70579 whole entry, looked up): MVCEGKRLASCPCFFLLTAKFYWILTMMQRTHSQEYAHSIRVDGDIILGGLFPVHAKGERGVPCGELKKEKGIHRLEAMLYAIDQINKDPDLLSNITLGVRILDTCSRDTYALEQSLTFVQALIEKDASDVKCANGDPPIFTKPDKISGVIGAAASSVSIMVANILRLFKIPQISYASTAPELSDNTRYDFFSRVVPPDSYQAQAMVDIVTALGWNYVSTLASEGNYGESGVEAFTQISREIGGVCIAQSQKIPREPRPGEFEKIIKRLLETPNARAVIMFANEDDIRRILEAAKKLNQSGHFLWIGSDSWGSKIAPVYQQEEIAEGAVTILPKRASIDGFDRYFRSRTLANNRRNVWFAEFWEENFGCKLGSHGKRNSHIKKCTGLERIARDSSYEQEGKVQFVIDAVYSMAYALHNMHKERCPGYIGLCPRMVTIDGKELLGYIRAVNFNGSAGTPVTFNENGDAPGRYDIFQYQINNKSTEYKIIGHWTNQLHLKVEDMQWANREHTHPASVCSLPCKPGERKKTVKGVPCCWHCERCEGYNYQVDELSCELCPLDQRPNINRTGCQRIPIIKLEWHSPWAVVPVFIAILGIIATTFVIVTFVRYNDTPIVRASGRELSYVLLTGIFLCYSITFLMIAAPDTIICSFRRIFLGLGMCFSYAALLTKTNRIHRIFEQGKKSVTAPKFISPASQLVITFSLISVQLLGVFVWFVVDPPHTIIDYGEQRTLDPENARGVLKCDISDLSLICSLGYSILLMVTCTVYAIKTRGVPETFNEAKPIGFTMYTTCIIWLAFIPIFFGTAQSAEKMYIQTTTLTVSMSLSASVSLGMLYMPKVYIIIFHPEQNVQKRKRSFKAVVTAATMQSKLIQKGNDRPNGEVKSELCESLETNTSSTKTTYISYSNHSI
The full ranking holds about 110,000 compounds; the median of “z-score” is about -0.1, and the highest 2% start at about 2. The entries come from a sample that favours the highest values as a whole.
Output: the number by itself.

Which measured z-score value corresponds to Cc1cc(/C=C2/NC(=O)NC2=O)c(C)n1-c1ccccn1 ?
-0.389

Which measured z-score value corresponds to Cc1cc(NC(=O)CSc2nc3ccccc3n2CC(=O)N2CCCCC2)no1 ?
0.0584

Which measured z-score value corresponds to Cc1cccc(OCc2nnc(SCC(=O)N3CCc4ccccc43)n2C)c1 ?
2.88

Which measured z-score value corresponds to Cc1ccc2c(c1)N(CC(=O)NCc1ccco1)C(=O)CO2 ?
-0.265

Which measured z-score value corresponds to Cc1cc(C)c(-n2c(C)cc(/C=C3/NC(=O)NC3=O)c2C)c(C)c1 ?
2.07

Which measured z-score value corresponds to O=C(CCCOc1ccc(Cl)cc1Cl)N1CCCc2ccccc21 ?
-0.0365

Which measured z-score value corresponds to CCN1CCCC1CNC(=O)c1ccc(N2CCCC2=O)cc1 (stereo not drawn) ?
1.38

Which measured z-score value corresponds to C=CCC(NC(C)c1ccccc1)c1ccco1 (stereo not drawn) ?
0.174

Which measured z-score value corresponds to Cc1ccccc1OCc1nnc(SCC(=O)N2CCc3ccccc32)n1C ?
-0.183

Which measured z-score value corresponds to COCc1nnc(NC(=O)c2ccco2)s1 ?
0.76

Which measured z-score value corresponds to CC(C)COC(=O)c1cc(=O)[nH]c2ccccc12 ?
1.23

Which measured z-score value corresponds to C/C=C(\C)c1nnc(NC(=O)c2ccco2)s1 ?
-0.358

Which measured z-score value corresponds to CC(=O)c1ccc(N2CCN(C(=S)Nc3cccc(Cl)c3)CC2)cc1 ?
-0.152
